pKi: −log10 of the molar value.
Literature pKi values, system: Sodium-dependent serotonin transporter (Homo sapiens).
assay_endpoint: pKi

Below are worked cases with known answers.
{"molecule": "CC1(Oc2cc(Br)ccc2OCCc2ccccc2)CNC1", "pKi": 7.36}
{"molecule": "Cc1cc(F)ccc1-c1nc(N2CCNCC2)nc2cc(Cl)ccc12", "pKi": 7.31}
{"molecule": "O=[N+]([O-])c1cccc([C@H]2CN3CCC[C@H]3c3cc(OCCCN4CCCCC4)ccc32)c1 (relative stereo)", "pKi": 8.40}

1. Fc1ccc2c(-c3ccccc3)nc(N3CCNCC3)nc2c1F
2. CCc1ccc(-c2ccc(F)cc2CO[C@H]2CCNC2)cc1
3. Fc1cc2nc(N3CCNCC3)nc(-c3c(F)cccc3F)c2cc1F
4. CNCc1cc(C#CCCN2CCSCC2)ccc1Oc1ccc(SC)cc1
5. Fc1ccc(Oc2ncccc2OC[C@H]2CCCNC2)cc1
Query: Hey, can you sort those molecules up there by pKi, smallest first? When ranking, write the labels in the order the request describes.
Result: 5, 2, 1, 3, 4
(5: 5.15, 2: 6.13, 1: 6.36, 3: 7.72, 4: 8.60)

A. Cn1nnc2ccc(COc3ccc(Cl)cc3OC3CNC3)cc21
B. CC[C@H]1CNCCN1c1nc(-c2c(F)cccc2F)c2ccccc2n1
Query: Could you please tell me which of these two has the higher pKi: A or B ? Which one? Tell me its label.
Result: B
(B: 7.74, A: 6.39)

a. Fc1ccccc1-c1ccccc1CO[C@H]1CCNC1
b. Fc1ccc2c(-c3ccc(F)c(F)c3)nc(N3CCNCC3)nc2c1
Query: # return whichever of a and b has the smaller pKi Which one? Tell me its label.
Result: a
